All figures here come from the RNAGym collection of RNA variant scans (doi:10.1073/pnas.2313332121).

B1: TPR 5TU (parent)
chain: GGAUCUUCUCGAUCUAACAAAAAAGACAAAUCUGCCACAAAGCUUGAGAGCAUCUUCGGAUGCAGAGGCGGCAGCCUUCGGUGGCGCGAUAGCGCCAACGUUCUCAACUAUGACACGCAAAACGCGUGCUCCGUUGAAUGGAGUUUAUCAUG

variants of: B1; assay: polymerase ribozyme fitness, log enrichment relative to wild type (log ratio); higher = more active; in vitro selection for triplet polymerase activity
This sample holds only a part of the variants without activity.
Think of -4 as a floor: if polymerase ribozyme fitness (log ratio) stands on it or above, it is 1; beneath it, -1.

Please indicate if the recorded polymerase ribozyme fitness (log ratio) for A23G C35A A142G meets or exceeds -4.
1

Please indicate if the recorded polymerase ribozyme fitness (log ratio) for U13A A52U A73G C85A U134G meets or exceeds -4.
-1

Please indicate if the recorded polymerase ribozyme fitness (log ratio) for C5G C69G C93U meets or exceeds -4.
-1

Please indicate if the recorded polymerase ribozyme fitness (log ratio) for G25A A37G C54A C87G meets or exceeds -4.
-1

Please indicate if the recorded polymerase ribozyme fitness (log ratio) for C38G A73U C95A U146G meets or exceeds -4.
1

Please indicate if the recorded polymerase ribozyme fitness (log ratio) for U45G U53A C75A C93A A113G meets or exceeds -4.
-1

Please indicate if the recorded polymerase ribozyme fitness (log ratio) for G11C U61A G67A G94C U145G A147U meets or exceeds -4.
-1

Please indicate if the recorded polymerase ribozyme fitness (log ratio) for C51A C87A G133U C149G meets or exceeds -4.
-1

Please indicate if the recorded polymerase ribozyme fitness (log ratio) for G48U C93G meets or exceeds -4.
1

Please indicate if the recorded polymerase ribozyme fitness (log ratio) for C105U A119U G140A U146G meets or exceeds -4.
1
